From: paper PMC3417467

Test target: integrins on WM-115 cells (mainly integrin α5β1, αVβ3, and αVβ5)
Assay method text: competitive cell adhesion assay
pIC50: −log10 of the molar value.
Quick reference for pIC50 among some binders

Binder	pIC50
FEANE (HELM PEPTIDE1{[dF].E.A.N.E}$PEPTIDE1,PEPTIDE1,1:R1-5:R2$$$V2.0; SMILES C[C@@H]1NC(=O)[C@H](CCC(=O)O)NC(=O)[C@@H](Cc2ccccc2)NC(=O)[C@H](CCC(=O)O)NC(=O)[C@H](CC(N)=O)NC1=O) [cyclopeptide-1 c-(-fEANE-)]	3.47 to 4.37
ANFEANELFFISEDV [linear peptide 6 (…)]	5.05
FEANE (HELM PEPTIDE1{F.E.A.[dN].E}$PEPTIDE1,PEPTIDE1,1:R1-5:R2$$$V2.0; SMILES C[C@@H]1NC(=O)[C@H](CCC(=O)O)NC(=O)[C@H](Cc2ccccc2)NC(=O)[C@H](CCC(=O)O)NC(=O)[C@@H](CC(N)=O)NC1=O) [cyclopeptide-4 c-(-FEAnE-)]	< 3.00
FEANE (HELM PEPTIDE1{F.[dE].A.N.E}$PEPTIDE1,PEPTIDE1,1:R1-5:R2$$$V2.0; SMILES C[C@@H]1NC(=O)[C@@H](CCC(=O)O)NC(=O)[C@H](Cc2ccccc2)NC(=O)[C@H](CCC(=O)O)NC(=O)[C@H](CC(N)=O)NC1=O) [cyclopeptide-2 c-(-FeANE-)]	3.28 to 4.52
FEANE (HELM PEPTIDE1{F.E.A.N.[dE]}$PEPTIDE1,PEPTIDE1,1:R1-5:R2$$$V2.0; SMILES C[C@@H]1NC(=O)[C@H](CCC(=O)O)NC(=O)[C@H](Cc2ccccc2)NC(=O)[C@@H](CCC(=O)O)NC(=O)[C@H](CC(N)=O)NC1=O) [cyclopeptide-5 c-(-FEANe-)]	< 3.00
FEANE (HELM PEPTIDE1{F.E.[dA].N.E}$PEPTIDE1,PEPTIDE1,1:R1-5:R2$$$V2.0; SMILES C[C@H]1NC(=O)[C@H](CCC(=O)O)NC(=O)[C@H](Cc2ccccc2)NC(=O)[C@H](CCC(=O)O)NC(=O)[C@H](CC(N)=O)NC1=O) [cyclopeptide-3 c-(-FEaNE-)]	< 3.00
